assay-name: protein stability index of a GFP-peptide fusion (GPS, HEK-293T) (PSI 1-6); higher = more stable;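 further: 24-mer peptide tiles fused after GFP, lentivirally expressed, FACS-sorted into six equal bins by GFP/DsRed ratio, decoded by Illumina sequencing, PSI is the read-weighted mean bin number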
experimental-setup: treatment: DMSO; c terminus: a fixed tail appended
measured-metric: protein stability index
API note: the answer field is a bare number with no unit suffix.

**Q:** For the sequence LSSIKRDTNSIAKAIKARGEVIHC [STX11] , what protein stability index is on record?
**A:** 3.22

**Q:** For the sequence TKITSAFKYINTVISCTIFIVGMV [EDNRA] , what protein stability index is on record?
**A:** 2.91

**Q:** For the sequence LTMAATFDDCLYALCVVDTIKRSS [GFOD1] , what protein stability index is on record?
**A:** 2.54

**Q:** For the sequence VSGGSAGGYGGGVSCGFGGGAGSG [KRT13] , what protein stability index is on record?
**A:** 3.47

**Q:** For the sequence PPRREPLPSRRDVYLSPRDDGYST [RBMX] , what protein stability index is on record?
**A:** 4.09

**Q:** For the sequence QYWLDGKIIAVGVIDILPNCVSSV [ATE1] , what protein stability index is on record?
**A:** 2.93

**Q:** For the sequence WKDLTLSTRPEEGCSLHEEDTQRH [TCAP] , what protein stability index is on record?
**A:** 5.08

**Q:** For the sequence VFLGNKRSLSERTVDKCFGRKKYD [SPATS1] , what protein stability index is on record?
**A:** 2.82

**Q:** For the sequence GGSKYLIYRRYRQFHALQSKLEER [NCF4] , what protein stability index is on record?
**A:** 2.45

**Q:** For the sequence NIADIEEKRGFTSHFVFVIEVKTK [NCF4] , what protein stability index is on record?
**A:** 2.47

**Q:** For the sequence LRELGHAEHEITELTATFTKFDRD [PKD2L1] , what protein stability index is on record?
**A:** 4.48

**Q:** For the sequence YAPEAPYTSPDKLKDIFMFITRQL [PDS5B] , what protein stability index is on record?
**A:** 2.59

---

assay-name: protein stability index of a GFP-peptide fusion (GPS, HEK-293T) (PSI 1-6); higher = more stable
experimental-setup: treatment: MLN4924 1 uM, 8 h; c terminus: a fixed tail appended
Could you label it t if measured protein stability index is 3 or higher, and f otherwise?

**Q:** # check: protein stability index of RVLKAYTLYRPEEGYCQAQAPIAA [TBC1D10A] is greater than or equal to 3
**A:** f

**Q:** # check: protein stability index of GMPSSLAHRIAAQTLLGTAKMLLH [PYCR3] is greater than or equal to 3
**A:** f

**Q:** # check: protein stability index of EKFVFFIGSKNGGKTTIILRCLDR [DYNC2LI1] is greater than or equal to 3
**A:** f

**Q:** # check: protein stability index of HVAGEQMLEDGPHNANRGQRLLAF [CCDC70] is greater than or equal to 3
**A:** t

**Q:** # check: protein stability index of AKLALFYDWLFFSPDKDSIMNIEP [INTS3] is greater than or equal to 3
**A:** f

**Q:** # check: protein stability index of GSSDKVYAHQMVRTDSREQKLDAF [MLH1] is greater than or equal to 3
**A:** t

**Q:** # check: protein stability index of VPRPGIPPMTQAQAVSAPGILNRP [ZNF207] is greater than or equal to 3
**A:** t

**Q:** # check: protein stability index of REARKRALARKQAQEQLRPQTPEP [RSPH3] is greater than or equal to 3
**A:** t

**Q:** # check: protein stability index of MRTTNLDNRCKLFDSPSLCSSSTR [CDC25A] is greater than or equal to 3
**A:** t

**Q:** # check: protein stability index of LQLNARSFMMGQGGEAAHHTRSPY [NEUROD6] is greater than or equal to 3
**A:** t

**Q:** # check: protein stability index of ERIDCQGIPPSSKDKLGVWVYKNK [KLHDC2] is greater than or equal to 3
**A:** t
